System: K. pneumonia (ATCC 13833, wild-type)
Test: MIC on ESKAPE pathogens, K. pneumoniae
# MIC Kp WT annotations

>>> data_value("CNCCN(C)c1cc(Nc2ccc3nc(-c4ccc(F)cc4)cc(N)c3c2)nc(N)n1")
">64 µg/mL"
>>> data_value("Nc1nc(Nc2ccc3nc(-c4ccc(F)cc4)cc(N)c3c2)cc(N2CCC(O)CC2)n1")
">64 µg/mL"
>>> data_value("Nc1nc(Nc2ccc3nc(-c4ccc(F)cc4)cc(N)c3c2)cc(N2CCNCC2)n1")
">64 µg/mL"
>>> data_value("Nc1cc(-c2ccc(F)cc2)nc2ccc(Nc3cc(N4CCNCC4)ncn3)cc12")
">64 µg/mL"
>>> data_value("Nc1nc(Nc2ccc3nc(-c4ccc(F)cc4)cc(N)c3c2)cc(N2CCCC(O)C2)n1 (stereo not drawn)")
">64 µg/mL"

MIC Kp WT for CN1CCN(c2cc(Nc3ccc4nc(-c5ccc(F)cc5)cc(N)c4c3)nc(N)n2)CC1 is >128 µg/mL

MIC Kp WT for Nc1cc(-c2ccc(F)cc2)nc2ccc(Nc3cc(Cl)ncn3)cc12 is >64 µg/mL

MIC Kp WT for CN(C)C1CCN(c2cc(Nc3ccc4nc(-c5ccc(F)cc5)cc(N)c4c3)nc(N)n2)CC1 is >128 µg/mL

MIC Kp WT for CN1CCCC(COc2cc(Nc3ccc4nc(-c5ccc(F)cc5)cc(N)c4c3)nc(N)n2)C1 (stereo not drawn) is >64 µg/mL
